Test system: HeLa cells
Format: cell-based
experimental-setup: human, 7 days
Description: The percent protection against cytopathology caused by viruses (antiviral activity or IC50) achieved by tested compounds and their cytotoxicity (CC50) were both calculated from dose-response curves. […] Automated tetrazolium-based […] assays were used for determination of IC50 and CC50 of test compounds. […] Finally, the absorbances were read in an eight-channel computer-controlled photometer (Multiskan MCC, Flow Laboratories) at two wavelengths (540 and 690 nm). […]
recorded-endpoint: CC50 (cytotoxic dose for 50% of the cells) (µM)
Could you give me the number in µM? Just the number is fine.

// known answers, use as guide
Entry Clc1ccc(Cn2cnnc2CN(CCc2ccc(Br)cc2)Cc2ccc3ccccc3n2)cc1 [compound 157] ; CC50 (cytotoxic dose for 50% of the cells) = 7.03

Entry Fc1ccc(Cn2cnnc2CN(CCc2ccc(Br)cc2)Cc2ccc3ccccc3n2)cc1 [compound 97] ; CC50 (cytotoxic dose for 50% of the cells) = 7.10

Entry N#Cc1cccc(Cn2cnnc2CN(CCc2ccc(Br)cc2)Cc2ccc3ccccc3n2)c1 [compound 102] ; CC50 (cytotoxic dose for 50% of the cells) = 7.08

Entry Brc1ccc(CCN(Cc2ccc3ccccc3n2)Cc2nncn2Cc2ccc(Br)cc2)cc1 [compound 92] ; CC50 (cytotoxic dose for 50% of the cells) = 6.82

Entry N#Cc1ccc(Cn2cnnc2CN(CCc2ccc(Br)cc2)Cc2ccc3cccc(O)c3n2)cc1 [compound 155] ; CC50 (cytotoxic dose for 50% of the cells) = 6.80

Entry Cc1ccc(CCN(Cc2ccc3ccccc3n2)Cc2nncn2Cc2ccc(C#N)cc2)cc1 [compound 46] ; CC50 (cytotoxic dose for 50% of the cells) = 7.06

New cases:
Entry Brc1ccc(CCN(Cc2ccc3ccccc3n2)Cc2nncn2Cc2ccccc2)cc1 [compound 101] ; CC50 (cytotoxic dose for 50% of the cells) = 6.89

Entry COC(=O)c1ccc(Cn2cnnc2CN(CCc2ccc(Br)cc2)Cc2ccc3ccccc3n2)cc1 [compound 90] ; CC50 (cytotoxic dose for 50% of the cells) = 7.59

Entry N#Cc1ccc(Cn2cnnc2CN(CCc2ccc(Cl)cc2Cl)Cc2ccc3ccccc3n2)cc1 [compound 114] ; CC50 (cytotoxic dose for 50% of the cells) = 6.93

---

Each item that follows carries a reported pIC50.
Tested on: Respiratory Syncytial Virus
assay-summary: In vitro screening for activity against Respiratory Syncytial Virus (MTT assay, protection against cytopathology)
Format: cell-based
experimental-setup: human respiratory syncytial virus, 168 h; RSV-infected HeLa cells, seven days after infection, MTT; read-out: IC50 (antiviral activity)
From the text: The percent protection against cytopathology caused by viruses (antiviral activity or IC50) achieved by tested compounds and their cytotoxicity (CC50) were both calculated from dose-response curves. […] Automated tetrazolium-based […] assays were used for determination of IC50 and CC50 of test compounds. […] Finally, the absorbances were read in an eight-channel computer-controlled photometer (Multiskan MCC, Flow Laboratories) at two wavelengths (540 and 690 nm). […]
The quantity pIC50 is defined as the negative base-10 logarithm of the molar concentration.

// known answers, use as guide
Entry Brc1ccc(CCN(Cc2ccc3ccccc3n2)Cc2nncn2Cc2ccccc2)cc1 [compound 101] ; pIC50 = 6.89

Entry Fc1ccc(Cn2cnnc2CN(CCc2ccc(Br)cc2)Cc2ccc3ccccc3n2)cc1 [compound 97] ; pIC50 = 7.10

// moving on: another record for pIC50
Entry N#Cc1cccc(Cn2cnnc2CN(CCc2ccc(Br)cc2)Cc2ccc3ccccc3n2)c1 [compound 102] ; pIC50 = 7.08
